target_or_test_system: recombinant human TFPI (tissue factor pathway inhibitor) (human, UniProt P10646 29-304)
protocol: cell-based or functional assay
assay_endpoint: A405, TF/FVIIa/FX complex assay, Ab 50 nM

Please fill in: A405, TF/FVIIa/FX complex assay, Ab 50 nM reported for clone 13 (antibody, V domains shown) VH: EVQLVESGGGLVKPGGSLRLSCAASGFTFSSYAMNWVRQAPGKGLEWVGTITTGGSHTYYADSVEGRFTISRDNAKNSLYLQMNSLRAEDTAVYYCARQDGNFLMDYWGQGTLVTVSS VL: DVVMTQTPLSLPVTLGQPASISCKSSPSLLDIDGKTYLNWLQQRPGQSPKRLIYLVSKLDSGVPDRFTGSGSGTDFTLKISRVEAEDVGVYYCWQGTHFPFTFGQGTKVEIKR = 0.818

Please fill in: A405, TF/FVIIa/FX complex assay, Ab 50 nM reported for clone 1023 (antibody, V domains shown, scFv on yeast at selection; human IgG4/kappa IgG as purified) VH: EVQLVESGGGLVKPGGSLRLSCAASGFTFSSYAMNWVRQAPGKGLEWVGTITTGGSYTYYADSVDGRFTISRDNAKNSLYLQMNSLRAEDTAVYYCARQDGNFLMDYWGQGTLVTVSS VL: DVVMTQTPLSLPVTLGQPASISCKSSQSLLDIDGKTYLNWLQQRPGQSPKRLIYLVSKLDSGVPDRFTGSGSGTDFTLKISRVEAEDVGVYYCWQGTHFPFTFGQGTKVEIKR = 0.681

Please fill in: A405, TF/FVIIa/FX complex assay, Ab 50 nM reported for clone 1202 (antibody, V domains shown, scFv on yeast at selection; human IgG4/kappa IgG as purified; also called No. 1202 antibody) VH: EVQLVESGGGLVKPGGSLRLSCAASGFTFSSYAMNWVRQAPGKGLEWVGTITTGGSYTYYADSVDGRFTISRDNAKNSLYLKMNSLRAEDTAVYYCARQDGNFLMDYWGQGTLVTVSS VL: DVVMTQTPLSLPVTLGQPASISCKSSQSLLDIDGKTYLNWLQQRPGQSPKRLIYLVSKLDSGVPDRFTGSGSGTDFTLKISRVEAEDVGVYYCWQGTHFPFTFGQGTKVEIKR = 0.843

Please fill in: A405, TF/FVIIa/FX complex assay, Ab 50 nM reported for clone 12 (antibody, V domains shown, human IgG4/kappa IgG as purified; also called No. 12 antibody) VH: EVQLVESGGGLVKPGGSLRLSCAASGFTFSSYAMNWVRQAPGKGLEWVGTITTGGSHTYYADSVEGRFTISRDNAKNSLYLQMNSLRAEDTAVYYCARQDGHFLMDYWGQGTLVTVSS VL: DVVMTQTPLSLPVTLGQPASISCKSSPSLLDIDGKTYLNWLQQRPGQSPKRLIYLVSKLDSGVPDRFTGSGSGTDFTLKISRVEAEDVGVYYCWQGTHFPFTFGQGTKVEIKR = 0.803
